- assay-protocol: mitochondrial membrane potential change in A549 cells, profiling panel, cell-based, JC-1 fluorescence, basal, 24 h, 100 nL (AID 1138);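 further: A549 lung adenocarcinoma cells under basal conditions with no added stimulus; test concentration not given here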
- reported-conditions: higher = more signal
z-score for assorted compounds
Number only, no unit.

Guide cases for z-score, answers given:
* C=CCNC(=O)[C@@H]1[C@H]2C(=O)O[C@H](c3ccccc3)[C@H](c3ccccc3)N2[C@H](c2ccccc2OCCO)[C@@]12C(=O)N(C(=O)OCCOC)c1ccc(C#CCCO)cc12 | -0.549
* C=CCC(OC(C)=O)[C@@H]1[C@@H](N(Cc2ccc(-c3ccccc3)cc2)C(=O)c2cccc3ccccc23)c2cc(OCCCO)ccc2N1C(=O)c1ccc2ccccc2c1 (stereo partly drawn) | 0.248

Let us examine a further case.
Task: Data request, read-out z-score, for C=CCC(OC(C)=O)[C@@H]1[C@@H](N(Cc2cc3ccccc3o2)C(=O)c2cccc3ccccc23)c2cc(OCCCO)ccc2N1C(=O)c1ccc2ccccc2c1 (stereo partly drawn)
Output: -0.0697

----------
- assay-protocol: small-molecule binders of probe aNOTCH2, primary screen, biochemical, small-molecule microarray, 635/667 nm fluorescence (AID 1121);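 further: score merges feature fluorescence read at 667 nm with its signal to noise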
- reported-conditions: higher = more signal
# binarize composite z-score: threshold -0.1 inclusive, high side class 1, low side class 0

Example results:
• C=CCC(OC(C)=O)[C@@H]1[C@@H](N(Cc2ccc(-c3ccccc3)cc2)C(=O)c2ccc(-c3ccccc3)cc2)c2cc(OCCCO)ccc2N1C(=O)c1ccc2ccccc2n1 (stereo partly specified) = class 0
• CCCCCCc1nc(-c2ccc(OC)nc2)cc2c1[Si](C(C)C)(C(C)C)OC2 = class 0
• COC(=O)[C@@]1(Cc2ccccc2)[C@@H]2[C@@H](CC(=O)[C@H]2CC(=O)C(=O)N(C)C)CN1C(=O)c1ccccc1 = class 1
• CN(C)CCCCNC(=O)[C@H]1C[C@H]2C(=O)NCC(=O)N2[C@H]1c1cccc(OCCO)c1 = class 0
• COC(=O)C1=CC(CCCO)=CC(c2ccc(CN3CCCC3)cc2)N(Cc2sc3ccccc3c2Cl)C=C1C(=O)OC (stereo unspecified) = class 1

Task: Entry CCCCN1CC=CC23O[C@@H]4/C=C\CCC(C)OC(=O)C4[C@H]2C(=O)N(C(C)CO)[C@@H]3C1=O (stereo partly specified) : is its composite z-score no less than -0.1?
Output: class 1

Task: Entry COC(=O)[C@@]1(Cc2ccc(F)cc2)[C@H]2c3cc(C(=O)N(C)C)n(CCO)c3C[C@H]2CN1C(=O)c1ccccc1 : is its composite z-score no less than -0.1?
Output: class 1

Task: Entry CC(C)C[C@@H]1NC(=O)[C@@]23C(=O)N[C@@H](Cc4ccccc4)C2[C@H](C)[C@@]2(C)O[C@H]2C3/C=C/C/C=C\CNC(=O)[C@@H](CC(C)C)NC1=O (stereo partly specified) : is its composite z-score no less than -0.1?
Output: class 0

Task: Entry CCCCNC(=O)c1ccc(C#C[Si](C)(C)C)c(OC(C)=O)c1 : is its composite z-score no less than -0.1?
Output: class 0

Task: Entry CCCCC=C[C@@H](NC(=O)c1ccc(C(F)(F)F)cc1)c1ccccc1 : is its composite z-score no less than -0.1?
Output: class 0

Task: Entry COC(=O)[C@@]1(Cc2ccccc2CN=[N+]=[N-])COC(c2ccc(OCCCO)cc2)=N1 : is its composite z-score no less than -0.1?
Output: class 1

----------
- assay-protocol: FRG1 promoter luciferase signal modulators, primary screen, FRG1 inhibition for FSHD, cell-based, C2C12 myotubes, firefly/Renilla luciferase, luminescence (AID 1084)
- reported-conditions: higher = more signal, called active from +8 up or from −8 down
measure-name: z-score
Number only, no unit.

- Cc1ccc(S[C@]2(C(=O)NCC(F)(F)F)CC(=O)N(C3CCCCC3)[C@@H]2c2ccc(CO)cc2)cc1: -2.21

Let us examine a further case.
Task: Data request, read-out z-score, for CCCCC(=C=CC[C@H](O)c1ccc(OCCO)cc1)C[C@H](O)c1ccccn1
Output: -0.865

----------
- assay-protocol: modulators of HCV replicon luciferase signal, primary screen, HCV replication inhibitor project, Huh7 cells, luciferase reporter (AID 1109);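 further: huh7 hepatoma cells harbouring a luciferase neomycin HCV replicon reporter; luciferase luminescence as measure of HCV replicon replication; test concentration not given here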
- reported-conditions: 48 h, higher = more signal
z-score for assorted compounds
Number only, no unit.

Guide cases for z-score, answers given:
• CN(C)C(=O)[C@@]1(CCS(=O)(=O)c2ccccc2)N=C(c2ccc(OCCCO)cc2)O[C@H]1c1ccccc1N=[N+]=[N-] = -0.235
• C=CCNC(=O)[C@@H]1[C@H]2C(=O)O[C@H](c3ccccc3)[C@H](c3ccccc3)N2[C@H](c2ccccc2OCCO)[C@@]12C(=O)N(C(=O)OCCOC)c1ccc(C#CCCO)cc12 = -1.82
• C=CCC(OC(C)=O)[C@@H]1[C@@H](N(Cc2cc3ccccc3o2)C(=O)c2cccc3ccccc23)c2cc(OCCCO)ccc2N1C(=O)c1ccc2ccccc2c1 (some centres undefined) = -0.0143
• O=c1cccc(-c2ccccc2C(F)(F)F)o1 = -0.445
• C[C@H]1NC(=O)C([C@@H](C)OCc2ccccc2)NC(=O)[C@@]23C(=O)N[C@@H](Cc4ccccc4)C2[C@H](C)[C@@]2(C)O[C@H]2C3/C=C/C/C=C\CNC1=O (some centres undefined) = -1.52

Task: Data request, read-out z-score, for CC(C)[Si](C#CCCCC#N)(O[C@H](c1ccccc1)c1cn([C@H](C)c2ccccc2)nn1)C(C)C
Output: -1.91

Task: Data request, read-out z-score, for CN1C(=O)C2C(C1=O)C1C=C(c3ccc(CO)cc3)C2C(c2cccs2)N1C (centres undefined)
Output: 0.706

Task: Data request, read-out z-score, for N#Cc1ccc(C(O)C2C=CC3C(=O)N(c4ccccc4)C(=O)C3N2Nc2ccc([N+](=O)[O-])cc2)cc1 (centres undefined)
Output: -1.2

Task: Data request, read-out z-score, for CCc1cccc(NC(=O)O[C@H]2[C@H](OC(=O)Nc3ccc4c(c3)OCO4)[C@H](OC(=O)Nc3ccc4c(c3)OCO4)[C@@H](OC)O[C@@H]2CO)c1
Output: -0.548

----------
- assay-protocol: binders of probe aFSTL3 on microarray, primary screen, stem cell growth factor project, biochemical, small-molecule microarray, fluorescence 635/667 (AID 1064);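 further: measures binding of the biotinylated anti-FSTL3 antibody to printed compounds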
- reported-conditions: higher = more signal
composite z-score for assorted compounds
Number only, no unit.

Guide cases for composite z-score, answers given:
* [N-]=[N+]=NCc1ccccc1C[C@]1(C(=O)NCc2ccccc2)N=C(c2ccc(OCCCO)cc2)O[C@H]1c1ccccc1CN=[N+]=[N-] | 1.79
* CCC[C@@H]1[C@@H](Sc2ccccc2)[C@@H](C(=O)O)[C@H](c2ccc(C)cc2)N1S(=O)(=O)c1ccc(C)cc1 | -0.259
* [N-]=[N+]=NCc1ccccc1C[C@@]1(C(=O)O)N=C(c2ccc(OCCCO)cc2)O[C@@H]1c1ccccc1CN=[N+]=[N-] | 0.0419
* COC(=O)[C@@]1(Cc2ccccc2)[C@@H]2[C@@H](CC(=O)[C@H]2CC(=O)C(=O)N(C)C)CN1C(=O)c1ccccc1 | 0.186
* C=CCN1C(=O)[C@]2(O[C@H](CCn3cc([C@H](O)c4ccccc4)nn3)[C@@H]([Si](C)(C)c3ccc(OC)cc3)[C@@H]2C)c2cc(N3C(=O)c4cccc5cccc3c45)ccc21 | -0.144
* CN(C)C(=O)[C@]1(Cc2ccccc2CN=[N+]=[N-])N=C(c2ccc(OCCCO)cc2)O[C@@H]1c1ccccc1N=[N+]=[N-] | 0.168

Let us examine a further case.
Task: Data request, read-out composite z-score, for C=C(COC)/C(=C/C[C@H](OC(=O)c1ccncc1)c1cccc(OCCO)c1)c1cnc2ccccc2c1
Output: -0.125

----------
- Tested on: Fibrinogen (Alexa647-labelled)
- assay-protocol: fibrinogen binders on compound microarrays, profiling panel, artefact control for SMM control-protein annotation, biochemical, small-molecule microarray, 635/667 nm fluorescence (AID 1131);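 further: z-score merges 667 nm fluorescence with per-spot signal-to-noise over triplicate slides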
- reported-conditions: fibrinogen-A647 binding fluorescence, higher = more signal
measure-name: composite z-score
Number only, no unit.

Task: Data request, read-out composite z-score, for COc1cc2c(cc1O)C(c1ccc(CN3CCCC3)cc1)N(Cc1ccc([N+](=O)[O-])o1)CC2 (centres undefined)
Output: 0.121

Task: Data request, read-out composite z-score, for CC(C)C[C@H]1NC(=O)[C@H](Cc2ccccc2)NC(=O)[C@@]23C(=O)N[C@@H](Cc4ccccc4)C2[C@H](C)[C@@]2(C)O[C@H]2C3/C=C/C/C=C\CNC1=O (some centres undefined)
Output: 0.315

Task: Data request, read-out composite z-score, for COC(=O)[C@]1(CO)N=C(c2ccc(OCCCO)cc2)O[C@@H]1c1ccccc1CN=[N+]=[N-]
Output: -0.353

----------
- assay-protocol: P. aeruginosa biofilm formation inhibitors, primary screen, PAO1 strain, BacTiter-Glo luminescence, LB-PBS (AID 1144)
- reported-conditions: 12 h, higher = more signal
# binarize z-score: threshold 0.09 inclusive, high side 1.0, low side 0.0

Example results:
• COC(=O)C(CC#Cc1ccc2c(c1)[C@]1(C(=O)N2)[C@H](c2ccc(O)cc2)N2[C@H](c3ccccc3)[C@H](c3ccccc3)OC(=O)[C@H]2[C@@H]1C(=O)N1CCc2cc(OC)c(OC)cc2C1)C(=O)OC = 1.0
• CC(C)[C@@H](C(=O)O)n1cc(-c2ccccc2)nn1 = 1.0
• CC(C)C[C@@H]1NC(=O)[C@@]23C(=O)N[C@@H](Cc4ccccc4)C2[C@H](C)[C@@]2(C)O[C@H]2C3/C=C/C/C=C\CNC(=O)[C@@H](CC(C)C)NC1=O (stereo not given in full) = 1.0

Task: Entry COCCCN1C(=O)[C@@]2(Cc3ccccc31)c1ccccc1C(=O)N(Cc1ccccc1OC)[C@H]2c1ccc(CO)cc1 : is its z-score no less than 0.09?
Output: 1.0

Task: Entry CC(C)CNC(=O)[C@@H]1c2ccccc2C(=O)N(Cc2ccccc2Cl)[C@H]1c1ccc(CO)cc1 : is its z-score no less than 0.09?
Output: 0.0

Task: Entry COc1ccc([Si](C)(C)[C@H]2[C@H](CCn3cc([C@H](O)c4ccccc4)nn3)O[C@@]3(C(=O)N(c4ccccc4)c4ccccc43)[C@@H]2C)cc1 : is its z-score no less than 0.09?
Output: 1.0

Task: Entry CC(C)CNC(=O)[C@@H]1c2ccccc2C(=O)N(C2Cc3ccccc3C2)[C@H]1c1ccc(CO)cc1 : is its z-score no less than 0.09?
Output: 1.0

Task: Entry [N-]=[N+]=NCc1ccccc1C[C@]1(C(=O)N2CCOCC2)N=C(c2ccc(OCCCO)cc2)O[C@H]1c1ccccc1CN=[N+]=[N-] : is its z-score no less than 0.09?
Output: 0.0
